- System: CCRF-CEM
- Assay summary: Selectivity index towards HIV-2 (ROD) in CEM cells
- Format: functional, Homo sapiens
Observation type: Selectivity index

Completed entries (count: 6):
>>> endpoint_value("Cn1cc(C(=O)O)c(=O)c2cc(N)c(N3CCN(c4cccc(C(F)(F)F)c4)CC3)cc21")
40
>>> endpoint_value("Cn1cc(C(=O)O)c(=O)c2cc(N)c(N3CCN(c4cnccn4)CC3)cc21")
">500"
>>> endpoint_value("Cn1cc(C(=O)O)c(=O)c2cc(N)c(N3CCN(c4nc5ccccc5o4)CC3)cc21")
110
>>> endpoint_value("Nc1cc2c(=O)c(C(=O)O)cn(C3CC3)c2cc1N1CCN(c2cccc(C(F)(F)F)c2)CC1")
11
>>> endpoint_value("Nc1cc2c(=O)c(C(=O)O)cn(N3CCN(c4ccccn4)CC3)c2cc1N1CCN(c2ccccn2)CC1")
">8"
>>> endpoint_value("Cn1cc(C(=O)O)c(=O)c2ccc(N3CCN(c4ccccn4)CC3)cc21")
">56"

Attention now turns to another entry.
Could you share which Selectivity index value was measured for Cn1cc(C(=O)O)c(=O)c2cc(N)c(N3CCN(c4ccccn4)CC3)cc21 ?
>1667

* * *

Entries and their CC50 values follow.
- System: CCRF-CEM
- Assay summary: Concentration of compound that reduces the viability of mock-infected CEM cells by 50%
- Format: functional
- Recorded conditions: Homo sapiens

Completed entries (count: 5):
>>> endpoint_value("Cn1cc(C(=O)O)c(=O)c2cc(N)c(N3CCN(c4cnccn4)CC3)cc21")
"> 100 µg/mL"
>>> endpoint_value("Nc1cc2c(=O)c(C(=O)O)cn(C3CC3)c2cc1N1CCN(c2cccc(C(F)(F)F)c2)CC1")
"9 µg/mL"
>>> endpoint_value("Nc1cc2c(=O)c(C(=O)O)cn(N3CCN(c4ccccn4)CC3)c2cc1N1CCN(c2ccccn2)CC1")
"> 100 µg/mL"
>>> endpoint_value("Cn1cc(C(=O)O)c(=O)c2cc(N)c(N3CCN(c4nc5ccccc5o4)CC3)cc21")
"2.2 µg/mL"
>>> endpoint_value("Cn1cc(C(=O)O)c(=O)c2ccc(N3CCN(c4ccccn4)CC3)cc21")
"> 100 µg/mL"

Could you share which CC50 value was measured for Cn1cc(C(=O)O)c(=O)c2cc(N)c(N3CCN(c4nccs4)CC3)cc21 ?
≥ 100 µg/mL

Subsequent entry: Cn1cc(C(=O)O)c(=O)c2cc(N)c(N3CCN(c4ccccn4)CC3)cc21
> 100 µg/mL

Subsequent entry: Cn1cc(C(=O)O)c(=O)c2cc(N)c(N3CCN(c4cccc(C(F)(F)F)c4)CC3)cc21
8 µg/mL

* * *

Entries and their CC50 values follow.
- Assay summary: Concentration of compound that reduces the viability of mock-infected peripheral blood mononuclear cells by 50%
- Format: functional
- Recorded conditions: Homo sapiens
Provide only the numeric value, understood in µg/mL.

>>> endpoint_value("Cn1cc(C(=O)O)c(=O)c2cc(N)c(N3CCN(c4nccs4)CC3)cc21")
1.3

Attention now turns to another entry.
Could you share which CC50 value was measured for Cn1cc(C(=O)O)c(=O)c2cc(N)c(N3CCN(c4cccc(C(F)(F)F)c4)CC3)cc21 ?
1.55

* * *

- Test system: MT4
- Assay summary: Selectivity index towards HIV-1 (IIIB) in MT-4 cells
- Format: functional, Homo sapiens
Observation type: Selectivity index

Completed entries (count: 5):
>>> endpoint_value("Cn1cc(C(=O)O)c(=O)c2cc(N)c(N3CCN(c4cccc(C(F)(F)F)c4)CC3)cc21")
7
>>> endpoint_value("Nc1cc2c(=O)c(C(=O)O)cn(-c3ccc(F)cc3)c2cc1N1CCN(c2ccccn2)CC1")
"<1"
>>> endpoint_value("Cc1nnc(N2CCN(c3cc4c(cc3N)c(=O)c(C(=O)O)cn4C)CC2)s1")
"<1"
>>> endpoint_value("Cn1cc(C(=O)O)c(=O)c2cc(N)c(N3CCN(c4cnccn4)CC3)cc21")
5.7
>>> endpoint_value("Cn1cc(C(=O)O)c(=O)c2cc(N)c(N3CCN(c4nc5ccccc5o4)CC3)cc21")
6.5

Could you share which Selectivity index value was measured for CC(=O)c1ccc(N2CCN(c3cc4c(cc3N)c(=O)c(C(=O)O)cn4C)CC2)cc1 ?
<1

Subsequent entry: Cn1cc(C(=O)O)c(=O)c2cc(N)c(N3CCN(c4ccccn4)CC3)c(F)c21
<1

Subsequent entry: Nc1cc2c(=O)c(C(=O)O)cn(N3CCN(c4ccccn4)CC3)c2cc1N1CCN(c2nc3ccccc3s2)CC1
<1

Subsequent entry: Nc1cc2c(=O)c(C(=O)O)cn(C3CC3)c2cc1N1CCN(c2nc3ccccc3s2)CC1
<1

Subsequent entry: Cn1cc(C(=O)O)c(=O)c2ccc(N3CCN(c4ccccn4)CC3)cc21
3.4

Subsequent entry: COc1c(N2CCN(c3ccccn3)CC2)c(N)cc2c(=O)c(C(=O)O)cn(C)c12
<1

Subsequent entry: Nc1cc2c(=O)c(C(=O)O)cn(C3CCN(Cc4ccccc4)CC3)c2cc1N1CCN(c2ccccn2)CC1
<1

Subsequent entry: Cn1cc(C(=O)O)c(=O)c2cc(N)c(N3CCN(c4nc5cc(Cl)ccc5s4)CC3)cc21
<1

Subsequent entry: Cn1cc(C(=O)O)c(=O)c2cnc(N3CCN(c4ccccn4)CC3)cc21
<1

Subsequent entry: CCn1cc(C(=O)O)c(=O)c2cc(N)c(N3CCN(c4ccccn4)CC3)cc21
<1

Subsequent entry: COc1ccccc1N1CCN(c2cc3c(cc2N)c(=O)c(C(=O)O)cn3C2CC2)CC1
<1

Subsequent entry: Nc1cc2c(=O)c(C(=O)O)cn(-c3nc4ccccc4s3)c2cc1N1CCN(c2ccccn2)CC1
<1

Subsequent entry: Cn1cc(C(=O)O)c(=O)c2cc(N)c(N3CCN(C4=Nc5ccccc5SC4)CC3)cc21
<1

Subsequent entry: Cn1cc(C(=O)O)c(=O)c2cc(N)c(N3CCN(c4nccs4)CC3)cc21
9

Subsequent entry: Nc1cc2c(=O)c(C(=O)O)cn(N3CCN(c4ccccn4)CC3)c2cc1N1CCN(c2ccccn2)CC1
<=3.4

Subsequent entry: Nc1cc2c(=O)c(C(=O)O)cn(C3CC3)c2cc1N1CCN(c2cccc(C(F)(F)F)c2)CC1
14.2

Subsequent entry: Cn1cc(C(=O)O)c(=O)c2cc(N)c(N3CCN(c4nc5ccccc5s4)CC3)cc21
<1

Subsequent entry: Nc1cc2c(=O)c(C(=O)O)cn(-c3ccc(-c4ccccc4)cc3)c2cc1N1CCN(c2nc3ccccc3s2)CC1
<1

Subsequent entry: Cn1cc(C(=O)O)c(=O)c2cc([N+](=O)[O-])c(N3CCN(c4ccccn4)CC3)c(F)c21
<1
